# Tested on: gene editing with dCas9
# assay: Screen of 322 new SSAP proteins, gene editing activity with dCas9 (Table 5)
# Format: cell-based
# applied conditions: normalized
# From the text: 322 new SSAP proteins were identified from sequence data, synthesized, and screened for activity with Cas9 and dCas9. Gene editing activities are shown below in Table 5, followed by amino acid sequences of the proteins.
experimental readout: dCas9 with SSAP activity (normalized)
Field format: numeric only.

Q. Please report the recorded dCas9 with SSAP activity (normalized) for SSAP_71: SEQ ID NO: 240 (protein) SNNELLAKPVEFEVNGEAVKLTGKTVKNFLVSGNGEVSDQEVVMFINLCKYQKLNPFLNEAYLVKFKSKSGPDKPAQVIVSKEAFMKRAEKHPNYEGFEAGIIVERDGQLVDIEGAIKLTNDKLVGGWARVYRSDRQKPITTRISLSEFSKGQSTWNSMPLTMIRKSAIVNAQREAFPETLGALYTEDDAKLDTTSSHDQEQVIEQEIKTKANQEVIDVEYTEESEQKSPQQEQTETTQAGPGF .
A. −0.555
